Catalogue of molecules with associated IC50
tested on: MCF7; test: Antiproliferative activity against human MCF7 cells assessed as inhibition of cell growth after 72 hrs by MTT assay; type: functional, cell-based; conditions: MCF7, 72 h
I only need the number, in nM, no unit after it.

Write down IC50 measured for item COc1ccc([C@H]2[C@H](c3ccc(NC(=O)CN)cc3)C(=O)N2c2cc(OC)c(OC)c(OC)c2)cc1
91

Write down IC50 measured for item COc1ccc([C@H]2[C@H](c3ccccc3)C(=O)N2c2cc(OC)c(OC)c(OC)c2)cc1OP(=O)(O)O
71

Write down IC50 measured for item COc1ccc([C@H]2[C@H](c3ccc(O)cc3)C(=O)N2c2cc(OC)c(OC)c(OC)c2)cc1OP(=O)(O)O
22

###

assay: Aqueous solubility of the compound after 24 hrs by HPLC analysis; assay type: physicochemical; details: aqueous medium
Label Y when solubility at 24 h >= 100 µg/mL; otherwise N.

item_smiles=COc1ccc([C@H]2[C@H](c3ccc(NC(=O)[C@@H](N)Cc4ccccc4)cc3)C(=O)N2c2cc(OC)c(OC)c(OC)c2)cc1 classification=Y
item_smiles=COc1ccc([C@H]2[C@H](c3ccccc3)C(=O)N2c2cc(OC)c(OC)c(OC)c2)cc1NC(=O)[C@@H](N)CO classification=Y
item_smiles=COc1ccc([C@H]2[C@H](c3ccccc3)C(=O)N2c2cc(OC)c(OC)c(OC)c2)cc1OP(=O)(O)O classification=Y
item_smiles=CC[C@H](C)[C@H](N)C(=O)Nc1cc([C@H]2[C@H](c3ccccc3)C(=O)N2c2cc(OC)c(OC)c(OC)c2)ccc1OC classification=Y

Tell me whether solubility at 24 h is at least 100 µg/mL here: COc1ccc([C@H]2[C@H](c3ccccc3)C(=O)N2c2cc(OC)c(OC)c(OC)c2)cc1NC(=O)[C@@H](N)C(C)C
Y

Tell me whether solubility at 24 h is at least 100 µg/mL here: COc1ccc([C@H]2[C@H](c3ccc(O)cc3)C(=O)N2c2cc(OC)c(OC)c(OC)c2)cc1OP(=O)(O)O
Y

Tell me whether solubility at 24 h is at least 100 µg/mL here: COc1ccc([C@H]2[C@H](c3ccccc3)C(=O)N2c2cc(OC)c(OC)c(OC)c2)cc1NC(=O)[C@H](C)N
Y

Tell me whether solubility at 24 h is at least 100 µg/mL here: COc1ccc([C@H]2[C@H](c3cccs3)C(=O)N2c2cc(OC)c(OC)c(OC)c2)cc1OP(=O)(O)O
Y

Tell me whether solubility at 24 h is at least 100 µg/mL here: COc1ccc([C@H]2[C@H](c3ccc(NC(=O)CN)cc3)C(=O)N2c2cc(OC)c(OC)c(OC)c2)cc1
N

Tell me whether solubility at 24 h is at least 100 µg/mL here: COc1ccc([C@H]2[C@H](c3ccc(NC(=O)[C@@H](N)C(C)C)cc3)C(=O)N2c2cc(OC)c(OC)c(OC)c2)cc1
N

###

test: Solubility in human plasma at pH 7.2 to 7.5; assay type: ADME, cell-free
property-measured: solubility
Could you write the number and then its unit?

Write down solubility measured for item COc1ccc(/C=C\c2cc(OC)c(OC)c(OC)c2)cc1NC(=O)[C@@H](N)CO
110 µg/mL

###

system: MCF7; assay: Antiproliferative activity against human MCF7 cells assessed as inhibition of cell growth after 72 hrs by MTT assay; type: functional, cell-based; conditions: MCF7, 72 h
Catalogue of compounds with associated IC50
I only need the number, in nM, no unit after it.

Known results for compounds:
item_smiles=COc1ccc([C@H]2[C@H](c3ccc(NC(=O)[C@@H](N)C(C)C)cc3)C(=O)N2c2cc(OC)c(OC)c(OC)c2)cc1 reported=50
item_smiles=COc1ccc([C@H]2[C@H](c3ccccc3)C(=O)N2c2cc(OC)c(OC)c(OC)c2)cc1NC(=O)[C@@H](N)Cc1ccc(O)cc1 reported=740
item_smiles=COc1ccc([C@H]2[C@H](c3ccc(NC(=O)[C@@H](N)Cc4ccccc4)cc3)C(=O)N2c2cc(OC)c(OC)c(OC)c2)cc1 reported=27
item_smiles=COc1ccc([C@H]2[C@H](c3ccccc3)C(=O)N2c2cc(OC)c(OC)c(OC)c2)cc1NC(=O)[C@H](C)N reported=760
item_smiles=COc1ccc([C@H]2[C@H](c3ccccc3)C(=O)N2c2cc(OC)c(OC)c(OC)c2)cc1NC(=O)CN reported=1100
item_smiles=COc1ccc([C@H]2[C@H](c3ccc(NC(=O)[C@H](C)N)cc3)C(=O)N2c2cc(OC)c(OC)c(OC)c2)cc1 reported=35

Attention now turns to another entry.
Write down IC50 measured for item CC[C@H](C)[C@H](N)C(=O)Nc1cc([C@H]2[C@H](c3ccccc3)C(=O)N2c2cc(OC)c(OC)c(OC)c2)ccc1OC
1100
